# System: Escherichia coli TOP10;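 also: peptides expressed intracellularly from a pBAD plasmid library in pooled LB shake-flask culture, induced with 0.3% L-arabinose, DNA abundance read by NGS, three biological replicates, DESeq2 with apeglm shrinkage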
# Assay Info: shrunken log2 fold change of peptide-encoding DNA abundance (4.5 h post-induction vs induction); higher = less antimicrobial activity (less host growth inhibition)
# Settings: time post-induction: 4.5 h; library: site-saturation at positions 5, 18, 19, 20
Experimental Endpoint: shrunken log2 fold change
Answers are plain numbers.

* RRIRCRPPRLPRPRPRPWCAPRP | -0.0685
* RRIRVRPPRLPRPRPRPPIWPRP | -0.109
* RRIRYRPPRLPRPRPRPAGDPRP | -0.232
* RRIRLRPPRLPRPRPRPGFQPRP | -0.0314
* RRIRQRPPRLPRPRPRPQNHPRP | -0.481

Respectfully, I request shrunken log2 fold change for each entry included below.
1. RRIRERPPRLPRPRPRPDPAPRP
2. RRIRQRPPRLPRPRPRPALNPRP
3. RRIRCRPPRLPRPRPRPLWSPRP
4. RRIRLRPPRLPRPRPRPIMCPRP
5. RRIRIRPPRLPRPRPRPQCIPRP
6. RRIRPRPPRLPRPRPRPQYHPRP

Reply:
1: 2.64; 2: -0.0345; 3: -0.233; 4: 0.02; 5: -0.37; 6: -0.68

These data points were gathered from the supplement of paper PMC9112550.
